- Tested on: A549-CANX-COX4
- method.description: phenotypically active (imaging signature differs from DMSO and reproducible) at any of 0.3-9 uM (binary (1 = active, 0 = inactive)); higher = active
- conditions.used: treatment time: 24 h
Structures can show the parent of a compound that is named as a salt.
Respond using exactly one of the listed classes: active, inactive

Use the examples below as a reference point.
[
  {
    "compound": "COc1c2c(cc3oc(CO)cc(=O)c13)O[C@@H](C(C)(C)O)C2 [Cimifugin]",
    "assay.target": "A549-CANX-COX4",
    "group.label": "inactive"
  },
  {
    "compound": "CC(C)(C)NCC(O)c1ccc(O)c(CO)c1 (stereo not drawn) [albuterol]",
    "assay.target": "A549-CANX-COX4",
    "group.label": "inactive"
  },
  {
    "compound": "Nc1ccn([C@@H]2O[C@H](CO)[C@@H](O)[C@@H]2O)c(=O)n1 [cytarabine]",
    "assay.target": "A549-CANX-COX4",
    "group.label": "active"
  }
]

Query: Name the outcome recorded for COc1cc(N2CCC(O)CC2)ccc1Nc1cc(Nc2ccccc2S(=O)(=O)C(C)C)c2cc[nH]c2n1 [Mps1-IN-1 dihydrochloride] in the assay.
Response: active

Query: Kindly provide the recorded test outcome for the following compound: CCCCC1=NC2(CCCC2)C(=O)N1Cc1ccc(-c2ccccc2-c2nnn[nH]2)cc1 [irbesartan]
Response: inactive

Query: Any idea what this test logged for CC(C)n1c(/C=C/[C@@H](O)C[C@@H](O)CC(=O)O)c(-c2ccc(F)cc2)c2ccccc21 [fluvastatin] ?
Response: active

Query: Dear colleague, could you share the recorded outcome for Nc1nc2ccc(OC(F)(F)F)cc2s1 [riluzole] when you have a moment?
Response: inactive

Query: Recorded call for Clc1ccc(C(c2ccc(Cl)cc2)[n+]2ccn(CC(OCc3ccc(Cl)cc3Cl)c3ccc(Cl)cc3Cl)c2)cc1 (stereo not drawn) [Calmidazolium chloride] ?
Response: inactive

----------
- System: HepG2-ACTB-RAB5A
- method.description: phenotypically active (imaging signature differs from DMSO and reproducible) at any of 0.3-9 uM (binary (1 = active, 0 = inactive)); higher = active
- conditions.used: treatment time: 24 h
Answer with one of the outcomes given here: YES for active, NO for inactive

Query: Test call, this compound: Cc1cc(Nc2nc(N[C@@H](C)c3ncc(F)cn3)ncc2Cl)n[nH]1
Response: YES

Query: So what was the verdict on C[C@@H](CN1CCC(n2c(=O)[nH]c3cc(Cl)ccc32)CC1)NC(=O)c1ccc2ccccc2c1 in this test?
Response: YES

Query: Call for entry C=C(C)[C@@H]1CC[C@]2(C(=O)O)CC[C@]3(C)[C@H](CC[C@@H]4[C@@]5(C)CC[C@H](O)C(C)(C)[C@@H]5CC[C@]43C)[C@@H]12 [betulinic-acid] :
Response: NO

Query: # lookup: test call for CC1=CC(=O)C2=C(C)CC[C@@H]3[C@H](OC(=O)[C@H]3C)[C@@H]12 [Leucomisine]
Response: NO

----------
- System: HepG2-TP53BP1-CLTA
- method.description: phenotypically active (imaging signature differs from DMSO and reproducible) at any of 0.3-9 uM (binary (1 = active, 0 = inactive)); higher = active
- conditions.used: treatment time: 24 h
Allowed answers: active, inactive

Query: Kindly provide the recorded test outcome for the following molecule: CC(C)NCCCn1c(Sc2cc3c(cc2I)OCO3)nc2c(N)ncnc21
Response: active

Query: Test call, this molecule: C=C1C[C@@]23CCC4[C@@](C)(CCC[C@@]4(C)C(=O)O[C@@H]4O[C@H](CO)C(O)[C@H](O)C4O)C2CC[C@@]1(O[C@H]1O[C@H](CO)C(O)[C@H](O)[C@H]1O[C@@H]1O[C@H](CO)[C@@H](O)[C@H](O)[C@H]1O)C3 (stereo partly drawn) [Stevioside]
Response: inactive

----------
- System: HepG2-TUBA1B-RELA
- method.description: phenotypically active (imaging signature differs from DMSO and reproducible) at any of 0.3-9 uM (binary (1 = active, 0 = inactive)); higher = active
- conditions.used: treatment time: 24 h
Tick one outcome: active, inactive

Query: Test call for this compound, please: COc1cc2c(N3CCN(C(=O)Nc4ccc(OC(C)C)cc4)CC3)ncnc2cc1OCCCN1CCCCC1
Response: active

----------
- System: HepG2-CANX-COX4
- method.description: lowest phenotypically active concentration; higher = less potent
- conditions.used: treatment time: 24 h
recorded.metric: lowest phenotypically active concentration

[
  {
    "molecule": "CO[C@@H]1[C@H](N(C)C(=O)c2ccccc2)C[C@H]2O[C@]1(C)n1c3ccccc3c3c4c(c5c6ccccc6n2c5c31)C(=O)NC4",
    "assay.target": "HepG2-CANX-COX4",
    "measured": "≤ 0.3 µM"
  },
  {
    "molecule": "CN(C)CC(O)Cn1c2ccc(Br)cc2c2cc(Br)ccc21 (centres undefined) [Wiskostatin]",
    "assay.target": "HepG2-CANX-COX4",
    "measured": "9 µM"
  },
  {
    "molecule": "C[C@H]1[C@H]2CC[C@H]3[C@@H]4CC=C5C[C@@H](N(C)C)CC[C@]5(C)[C@H]4CC[C@]23CN1C [Conessine]",
    "assay.target": "HepG2-CANX-COX4",
    "measured": "9 µM"
  }
]

Now for a further molecule.
Query: Would you kindly share the measured lowest phenotypically active concentration for COc1cc2c(NC3CCN(C(C)C)CC3)nc(C3CCCCC3)nc2cc1OCCCN1CCCC1 ?
Response: 3 µM

----------
- Test system: WPMY1-TUBA1B-RELA
- method.description: phenotypically active (imaging signature differs from DMSO and reproducible) at any of 0.3-9 uM (binary (1 = active, 0 = inactive)); higher = active
- conditions.used: treatment time: 24 h
The reply should name one outcome from label 1 (active), label 0 (inactive)

The following molecules have reported results that may help.
[
  {
    "molecule": "Nc1nc(Cl)nc2c1ncn2[C@H]1C[C@H](O)[C@@H](CO)O1",
    "group.label": "label 1"
  },
  {
    "molecule": "COc1ccc2c3c(c(=O)n(C)c2c1OC)C=CC(C)(C)O3",
    "group.label": "label 0"
  },
  {
    "molecule": "Cc1cc(Nc2nc(N[C@@H](C)c3ncc(F)cn3)ncc2Cl)n[nH]1",
    "group.label": "label 1"
  }
]

Query: Record lookup: outcome of this test for CC(C)c1cc(-c2n[nH]c(=O)n2-c2ccc3c(ccn3C)c2)c(O)cc1O ?
Response: label 1

Query: What was the test verdict on NC1(C(=O)N[C@@H](CCO)c2ccc(Cl)cc2)CCN(c2ncnc3[nH]ccc23)CC1 ?
Response: label 1

----------
- Tested on: WPMY1-GM130-SQSTM1
- method.description: phenotypically active (imaging signature differs from DMSO and reproducible) at any of 0.3-9 uM (binary (1 = active, 0 = inactive)); higher = active
- conditions.used: treatment time: 24 h
Where a name gives a salt, the structure may show the parent alone.
Give measured phenotypically active for each item. Keep answers brief.
Numbers only.

[
  {
    "compound": "CN1[C@@H]2CC[C@H]1C[C@@H](OC(c1ccccc1)c1ccccc1)C2",
    "recorded.metric": "phenotypically active",
    "measured": 1
  },
  {
    "compound": "CNC(=O)c1ccccc1Sc1ccc2c(/C=C/c3ccccn3)n[nH]c2c1",
    "recorded.metric": "phenotypically active",
    "measured": 1
  },
  {
    "compound": "NCCC(=O)NCCc1c[nH]cn1",
    "recorded.metric": "phenotypically active",
    "measured": 0
  }
]

Dear colleague, could you please provide phenotypically active for the compounds listed below?
1. C=CCc1ccccc1OC[C@@H](O)CNC(C)C [Alprenolol hydrochloride]
2. Nc1ncnc2c1nc(Cl)n2C1O[C@H](CO)[C@@H](O)[C@H]1O (stereo not given in full)

Response:
0
1

----------
- Tested on: HepG2-TUBA1B-RELA
- method.description: phenotypically active (imaging signature differs from DMSO and reproducible) at any of 0.3-9 uM (binary (1 = active, 0 = inactive)); higher = active
- conditions.used: treatment time: 24 h
Counter-ions that a name gives are not always drawn.
recorded.metric: phenotypically active
One number for each entry.

See these solved cases before continuing.
[
  {
    "molecule": "CC(CCc1ccc(O)cc1)NCCc1ccc(O)c(O)c1 (centres undefined) [Dobutamine hydrochloride]",
    "phenotypically active": 0
  },
  {
    "molecule": "Cn1cc(C2=C(c3ccc(Cl)cc3Cl)C(=O)NC2=O)c2ccccc21",
    "phenotypically active": 0
  },
  {
    "molecule": "CC(C)C[C@H](NC(=O)OCC1c2ccccc2-c2ccccc21)C(=O)O",
    "phenotypically active": 0
  },
  {
    "molecule": "Cc1n[nH]c2ccc(-c3cncc(OC[C@@H](N)Cc4ccccc4)c3)cc12",
    "phenotypically active": 1
  },
  {
    "molecule": "COc1ccc(Cl)cc1C(=O)NCCc1ccc(S(=O)(=O)NC(=O)NC2CCCCC2)cc1 [glyburide]",
    "phenotypically active": 0
  },
  {
    "molecule": "O=C([C@H](Cc1cccc(C(F)(F)F)c1)NS(=O)(=O)c1cc(F)c2c(c1)CCNC2)N1CCCC1 [(S)-PFI 2 hydrochloride]",
    "phenotypically active": 0
  }
]

# batch size: 3; output phenotypically active per entry
1. CSc1ccc(C(=O)c2[nH]c(=O)[nH]c2C)cc1
2. C=C1CC[C@H](O)C/C1=C\C=C1\CCC[C@]2(C)[C@@H]([C@H](C)/C=C/[C@H](C)C(C)C)CC[C@@H]12
3. CN(C)c1ccc(C(=O)NCCCCCCC(=O)NO)cc1

Response:
1: 0; 2: 0; 3: 1
